Listing: IC50 of selected compounds
target: MAPK14 (human) (UniProt Q16539); assay: Inhibition of LPS-Induced TNF-a Production in THP1 Cells
Sequence (Q16539 whole entry, looked up): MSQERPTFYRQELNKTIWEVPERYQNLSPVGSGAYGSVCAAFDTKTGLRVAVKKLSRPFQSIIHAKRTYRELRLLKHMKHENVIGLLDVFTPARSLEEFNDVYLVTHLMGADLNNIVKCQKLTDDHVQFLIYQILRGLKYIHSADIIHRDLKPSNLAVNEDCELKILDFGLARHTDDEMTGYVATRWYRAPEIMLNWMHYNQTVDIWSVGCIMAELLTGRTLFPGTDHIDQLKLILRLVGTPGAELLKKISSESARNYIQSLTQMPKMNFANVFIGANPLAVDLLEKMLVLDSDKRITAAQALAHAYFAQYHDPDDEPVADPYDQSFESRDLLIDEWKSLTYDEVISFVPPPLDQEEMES

[
  {
    "structure-string": "Nc1c(C(=O)c2cccc(N3CCC(Cc4ccccc4)CC3)c2)cnn1-c1ccc(F)cc1",
    "IC50, nM": 140
  },
  {
    "structure-string": "Nc1c(C(=O)c2ccc(CCCO)cc2)cnn1-c1ccccc1",
    "IC50, nM": 1770
  },
  {
    "structure-string": "Nc1c(C(=O)c2cccc(CCCN3CCOCC3)c2)cnn1-c1ccc(F)cc1",
    "IC50, nM": 1040
  }
]
